Every entry's value here was drawn from paper PMC10177380.

Recorded Percentage COX-2 Inhibitory Activity, one value per entry.
Target: COX-2 (human) (Homo sapiens)
Construct: purchased Cayman Chemical Item No. 701080
Sequence (P35354 18-604): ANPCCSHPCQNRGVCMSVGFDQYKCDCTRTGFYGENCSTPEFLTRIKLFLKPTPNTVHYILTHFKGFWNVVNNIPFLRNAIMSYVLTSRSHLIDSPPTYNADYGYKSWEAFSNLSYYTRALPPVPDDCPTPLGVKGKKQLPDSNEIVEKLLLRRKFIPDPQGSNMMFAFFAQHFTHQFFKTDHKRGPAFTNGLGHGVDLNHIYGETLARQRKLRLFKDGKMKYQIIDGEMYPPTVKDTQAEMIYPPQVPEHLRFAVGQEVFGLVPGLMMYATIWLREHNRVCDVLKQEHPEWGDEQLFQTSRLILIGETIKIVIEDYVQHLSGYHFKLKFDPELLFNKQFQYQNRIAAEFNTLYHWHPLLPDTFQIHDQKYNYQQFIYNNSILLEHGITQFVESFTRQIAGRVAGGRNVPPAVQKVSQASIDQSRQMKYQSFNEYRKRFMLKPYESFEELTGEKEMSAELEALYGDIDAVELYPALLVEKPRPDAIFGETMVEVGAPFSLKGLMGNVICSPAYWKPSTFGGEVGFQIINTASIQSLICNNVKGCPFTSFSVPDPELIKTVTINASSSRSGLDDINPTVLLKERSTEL
Test: COX-2 (human) Inhibitor Screening Assay Kit (ELISA)
Assay type: biochemical
Set-up: concentration or dose not given beside the values
Number only, in %; omit the unit.

Can you share its Percentage COX-2 Inhibitory Activity? I mean this molecule: COc1ccc2c(c1)c(CC(=O)OCC(=O)O)c(C)n2C(=O)c1ccc(Cl)cc1 76

Value lookup for Percentage COX-2 Inhibitory Activity; key = COc1ccc2c(c1)c(CC(=O)OCC(=O)[O][Pt-2]13([OH])([NH2+][C@H]4CCCC[C@@H]4[NH2+]1)[n+]1cccc4ccc5ccc[n+]3c5c41)c(C)n2C(=O)c1ccc(Cl)cc1 [Complex 4, [Pt^IV(phen)(SS-DACH)(ACE)(OH)]^2+] 48

Now consider a different molecule.
// lookup Percentage COX-2 Inhibitory Activity for Cc1cc2c3c4c1=CC=C[N]4[Pt+2][N]3C=CC=2.N[C@H]1CCCC[C@@H]1N 6
